Recorded Ki, one value per entry.
# systemName: TYK2 (Homo sapiens)
# Construct: made in house; host or cells: SF9 insect cells (baculovirus)
# Sequence (P29597 873-1187): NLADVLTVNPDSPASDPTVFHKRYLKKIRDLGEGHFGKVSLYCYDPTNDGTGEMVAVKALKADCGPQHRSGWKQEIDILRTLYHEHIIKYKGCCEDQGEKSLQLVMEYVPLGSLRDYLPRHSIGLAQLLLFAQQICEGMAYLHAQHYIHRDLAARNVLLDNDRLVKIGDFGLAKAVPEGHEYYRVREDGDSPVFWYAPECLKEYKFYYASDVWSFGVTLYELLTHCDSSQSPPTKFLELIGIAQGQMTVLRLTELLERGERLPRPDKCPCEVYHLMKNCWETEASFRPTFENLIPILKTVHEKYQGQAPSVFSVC
# assaySummary: TYK2 inhibition (Table 4)
# Type: biochemical
The reply should consist of the numeric value with the unit placed after it.

Below, each entry is followed by its recorded Ki result.
# compound, Ki
measured = [
    ("C[C@@H](O)c1nc2cnc3[nH]ccc3c2n1[C@H]1CC[C@H](N(C)CC(F)(F)F)CC1", "22.3 nM"),
    ("Cc1nc2cnc3[nH]ccc3c2n1C1CCC(N2CCC(C#N)CC2)CC1 (centres unmarked)", "23.4 nM"),
    ("CC(C)(C)OC(=O)NC1CCCC(n2cnc3cnc4[nH]ccc4c32)C1 (single isomer, unassigned) [Example 477]", "799 nM"),
    ("N#CCC(=O)N1CCCC(n2cnc3cnc4[nH]ccc4c32)CC1 (racemic)", "6.6 nM"),
    ("O=C(Cc1nc2cnc3[nH]ccc3c2n1C1CCCOC1)NC1CCCC1 (racemic)", "194 nM"),
]

The recorded Ki for "c1cc2c(ncc3nc(C4CC4)n(C4CCNCC4)c32)[nH]1" is 1290 nM

The value of Ki measured for the compound c1nc2c([nH]1)CCC(n1cnc3cnc4[nH]ccc4c31)C2 (racemic) turned out to be 391 nM

// sample "CC1(n2cnc3cnc4[nH]ccc4c32)CCN(Cc2cncnc2)CC1" , its Ki was 426 nM

----------
# systemName: JAK2 (Homo sapiens, UniProt O60674)
# Construct: made in house; host or cells: SF9 insect cells (baculovirus)
# Sequence (O60674 812-1132): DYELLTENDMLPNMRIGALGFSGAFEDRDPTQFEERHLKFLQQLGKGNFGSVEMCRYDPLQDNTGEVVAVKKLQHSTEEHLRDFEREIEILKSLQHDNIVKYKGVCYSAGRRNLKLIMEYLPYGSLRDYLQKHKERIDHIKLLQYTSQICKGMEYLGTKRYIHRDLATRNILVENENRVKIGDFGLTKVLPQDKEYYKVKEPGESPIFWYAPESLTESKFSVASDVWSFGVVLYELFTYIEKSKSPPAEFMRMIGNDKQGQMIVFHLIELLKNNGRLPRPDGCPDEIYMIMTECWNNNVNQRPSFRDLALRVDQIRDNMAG
# assaySummary: JAK2 inhibition (Table 4)
# Assay type: biochemical
# particulars: read-out: JAK2 Ki
readoutLabel: Ki (nM)
Numbers only here, please. The scale is nM.

// known answers, use as guide
# molecule, Ki / nM
rows = [
    ("N#CCN1CCC(N[C@H]2CC[C@H](n3cnc4cnc5[nH]ccc5c43)CC2)CC1", 48.6),
    ("CNC(=O)OC1CCC(n2cnc3cnc4[nH]ccc4c32)CC1 (stereo not shown)", 16.6),
    ("C[C@@H](O)c1nc2cnc3[nH]ccc3c2n1[C@H]1CC[C@H](OC(=O)N(C)C)CC1", 641),
    ("CC(C)CS(=O)(=O)NCc1nc2cnc3[nH]ccc3c2n1C1CCN(CCC#N)CC1", 53.7),
    ("CC(CC#N)N1CCC(n2c(CN3CCCC3=O)nc3cnc4[nH]ccc4c32)CC1 (racemic)", 97.1),
]

// next entry
In plain terms, "c1cncc(CN2CCC(n3cnc4cnc5[nH]ccc5c43)CC2)c1" has a documented Ki of 4.84

----------
# systemName: JAK2 (Homo sapiens, UniProt O60674)
# Construct: made in house; host or cells: SF9 insect cells (baculovirus)
# assaySummary: JAK2 inhibition (Table 4)
# Assay type: biochemical
# particulars: read-out: JAK2 Ki
readoutLabel: pKi
On this scale, pKi is minus log10 of a concentration expressed in M (mol/L).

pKi for "O=C(N[C@H]1CC[C@H](n2cnc3cnc4[nH]ccc4c32)CC1)N1CCOCC1" is 7.44

pKi recorded for this compound, OC1CCCC(n2nnc3cnc4[nH]ccc4c32)C1 (single isomer, unassigned) [Example 554] , is 7.50

Per the record, "Cc1nc2cnc3[nH]ccc3c2n1[C@H]1CC[C@@H](NC(=O)CC(F)(F)F)C1" has pKi of 8.26

For this compound ( OC1CCCC(n2nnc3cnc4[nH]ccc4c32)C1 (single isomer, unassigned) [Example 553] ), measured pKi is 7.69

Recorded pKi (compound "CC(C)S(=O)(=O)NCc1nc2cnc3[nH]ccc3c2n1C1CCN(CCC#N)CC1" ): 6.97

Data point: "CC(C)c1nc2cnc3[nH]ccc3c2n1C1CCN(Cc2ccccc2)CC1" ; pKi = 7.61

The compound "N#C[C@@H]1C[C@@H]1C(=O)N1CCC[C@@H](n2cnc3cnc4[nH]ccc4c32)C1" showed pKi equal to 7.71

The compound "N#Cc1ccc(CN2CCC[C@@H](n3cnc4cnc5[nH]ccc5c43)C2)cc1" showed pKi equal to 7.75

Reported pKi for "N#C[C@H]1CC[C@H](n2cnc3cnc4[nH]ccc4c32)CC1" was 8.02

Consider "Cc1nc2cnc3[nH]ccc3c2n1[C@H]1CC[C@H](NC(=O)OCC(F)F)CC1" . Its measured pKi is 8.35

The compound "FC(F)(F)CCN1CCC(n2cnc3cnc4[nH]ccc4c32)CC1" showed pKi equal to 8.11

Looking up "CNC(=O)Cc1nc2cnc3[nH]ccc3c2n1C1CCN(Cc2ccccc2)CC1" , I found its pKi recorded as 7.41
